target: human IL-6 (human, UniProt P05231 30-212); assay: SPR Biacore, supernatant, Protein A capture, 37 C
Sequence (P05231 30-212 limits assumed): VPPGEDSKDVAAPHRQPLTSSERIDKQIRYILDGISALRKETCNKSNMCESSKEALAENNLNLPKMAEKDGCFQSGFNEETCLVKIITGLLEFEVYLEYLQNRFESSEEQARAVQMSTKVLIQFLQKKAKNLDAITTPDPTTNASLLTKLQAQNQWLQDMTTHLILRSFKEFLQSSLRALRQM
Each entry below carries its recorded koff.
Response body: numeric value in s⁻¹, unit text excluded.

| binder | observed.result |
| --- | --- |
| Anti-IL-6 antibody, heavy chain S35H, G66D, Q99G / light chain M32L, M50D, N52S, M88Q (antibody, IgG1, V domains shown, IgG1; variable domains only; VL is variant III) VH: EVQLVESGGGLVQPGGSLRLSCAASGFTFSPFAMHWVRQAPGKGLEWVAKISPGGSWTYYSDTVTDRFTFSLDTSKSTAYLQMNSLRAEDTAVYYCARGLWGYYALDIWGQGTLVTVSS VL: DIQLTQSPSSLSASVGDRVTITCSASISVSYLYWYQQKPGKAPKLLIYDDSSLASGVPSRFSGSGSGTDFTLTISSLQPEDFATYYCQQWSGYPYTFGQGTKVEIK | 0.00774 |

Lookup result for Anti-IL-6 antibody, heavy chain G66D / light chain WT (antibody, IgG1, V domains shown, IgG1; variable domains only) VH: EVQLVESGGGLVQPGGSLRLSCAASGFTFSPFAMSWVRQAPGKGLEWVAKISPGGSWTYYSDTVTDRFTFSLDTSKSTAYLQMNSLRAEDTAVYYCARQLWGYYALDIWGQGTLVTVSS VL: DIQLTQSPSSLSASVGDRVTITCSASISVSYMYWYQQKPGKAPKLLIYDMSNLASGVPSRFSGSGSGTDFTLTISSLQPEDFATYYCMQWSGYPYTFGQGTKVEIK ; measured koff: 0.00048

The reported value for Anti-IL-6 antibody, heavy chain S35H, G66D, Q99H / light chain WT (antibody, IgG1, V domains shown, IgG1; variable domains only) VH: EVQLVESGGGLVQPGGSLRLSCAASGFTFSPFAMHWVRQAPGKGLEWVAKISPGGSWTYYSDTVTDRFTFSLDTSKSTAYLQMNSLRAEDTAVYYCARHLWGYYALDIWGQGTLVTVSS VL: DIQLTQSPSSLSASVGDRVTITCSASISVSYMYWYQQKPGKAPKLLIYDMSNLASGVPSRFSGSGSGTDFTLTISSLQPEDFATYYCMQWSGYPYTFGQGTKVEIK in terms of koff is 0.00136
